# Test system: RPMI-8226 leukemia
# EXPERIMENT: NCI tumour cell line growth inhibition, 48 h
READOUT NAME: TGI

Illustrative cases are given below, each with its answer.
O=[N+]([O-])c1ccc2nc3ccscc-3c2c1; 44.1 µM
O=[N+]([O-])c1cc(Cl)ccc1S(=O)(=O)c1ccc(Cl)cc1[N+](=O)[O-]; > 100 µM
CCOc1ccc2c(c1)C(=O)c1c-2n(CCCN)c(=O)c2cc([N+](=O)[O-])ccc12; 0.302 µM
C=C[Si](C)(C)COC(=O)/C(C#N)=C/C=C/c1ccccc1; > 100 µM
COC(=O)/C=C1/OC(c2ccc(C)cc2C)=CC1=O; > 100 µM
CC(=O)c1c(C)cc2cccc(OC3OC(CO)C(O)C(O)C3O)c2c1O (centres undefined) (tested in a mixture with another compound); > 100 µM

State, for RPMI-8226 leukemia, measured TGI of the molecule listed here: Cc1cccc2c(N=Nc3ccccc3[N+](=O)[O-])c(O)[nH]c12
> 89.3 µM

###

# Test system: KM12 colon
# EXPERIMENT: NCI tumour cell line growth inhibition, 48 h
READOUT NAME: TGI (µM)
Just the number please, in µM, no unit attached.

Please report TGI for the following compound: N#CSCC1CC(O)(c2ccccc2)CC(c2ccc(Cl)cc2)O1 (stereo unspecified)
3.36

Please report TGI for the following compound: CC(C)c1ccc(/C=N/N=C(N)N)cc1
11.6

Please report TGI for the following compound: CNc1cccc2c1C(C)C[C@]1(C)C(=O)Nc3ccccc3[C@H]21 (stereo partly specified)
87.1

Please report TGI for the following compound: C=C1C(=O)OC2/C=C(\C)CC/C=C(\C)CC(OC(=O)/C(=C/CO)CO)[C@@H]12 (stereo partly specified)
35.1

###

compounds and their reported GI50
# System: TK-10 renal
# EXPERIMENT: NCI tumour cell line growth inhibition, 48 h

CNC12C3C4C1C1C2C3C41C(=O)N[C@H](C(=O)N(C)[C@H](C[C@@H](OC(C)=O)c1nc(C(=O)N[C@@H](Cc2ccccc2)C[C@H](C)C(=O)OC)cs1)C(C)C)C1CC1 (stereo partly drawn); 0.562 µM

Please report GI50 for the following compound: C=C1C(=O)O[C@H]2[C@H]1CC/C(COC(=O)C(=O)c1c[nH]c3ccc(Cl)cc13)=C\CC[C@@]1(C)O[C@@H]21
1.73 µM

Please report GI50 for the following compound: CC1=C/C(O)CC(=O)Cc2nc(co2)C(=O)N2CCC=C2C(=O)OC(C(C)C)C(C)/C=C\C(=O)NC/C=C\1 (stereo not drawn)
> 100 µM

Please report GI50 for the following compound: O=C([CH-]C(=O)c1ccccc1)c1ccccc1.[CH3-].[CH3-].[CH3-].[Sn+4]
31.7 µM

Please report GI50 for the following compound: N#CSCC1CC(O)(c2ccccc2)CC(c2ccc(Cl)cc2)O1 (stereo not drawn)
2.13 µM

Please report GI50 for the following compound: COC(=O)c1ccc(NC(N)=NCC(C)(C)COc2ccc(C(F)(F)F)cc2)nc1
1.57 µM

Please report GI50 for the following compound: CC(C)c1ccc(/C=N/N=C(N)N)cc1
12.9 µM

Please report GI50 for the following compound: Cc1ccc(N(/C=C/C(=O)C(F)(F)F)CC(=O)c2ccc(Cl)c(Cl)c2)cc1
12.1 µM

###

# Test system: ACHN renal
# EXPERIMENT: NCI tumour cell line growth inhibition, 48 h; in the data active means GI50 below about 0.43 µM; inactive means the rest
Please answer using one outcome listed in active, inactive

Look up the recorded call for Cc1cc(S(=O)(=O)Nc2nc3ccccc3[nH]2)c(SCc2ccccc2)cc1Cl in this test.
inactive

Look up the recorded call for NC(=NCCO)c1ccc(N2CCCN(c3ccc(C(N)=NCCO)cc3)CC2)cc1 in this test.
inactive

Look up the recorded call for O=C(c1ccccc1)c1ccc(O)c2ncccc12 in this test.
inactive

Look up the recorded call for Cc1ccc(S(=O)(=O)N[C@@H](Cc2ccccc2)C(=O)CCl)cc1 in this test.
inactive

Look up the recorded call for N=C1N=C(N)S/C1=C\c1ccc2ncccc2c1 in this test.
inactive

Look up the recorded call for N#CSCC1CC(O)(c2ccccc2)CC(c2ccc(Cl)cc2)O1 (stereo unspecified) in this test.
inactive

Look up the recorded call for COc1ccc(C2SCC(=O)N2NC(=O)C(O)c2ccccc2)cc1 (stereo unspecified) in this test.
inactive

Look up the recorded call for CCCC(CCC)Oc1ccc(CCCC2=C(O)c3ccccc3C(=O)C2=O)cc1 in this test.
inactive

Look up the recorded call for CCOC(=O)Nc1ccc(C(=O)/C=C/c2ccccc2)cc1 in this test.
inactive

Look up the recorded call for C=C1[C@@H](O)C[C@H]2C(C)(C)C[C@H](Cl)C[C@]2(C)[C@H]1C[C@H](O)[C@H]1CC(=O)NC1=O in this test.
active

Look up the recorded call for OCc1ncc(-c2ccccc2)s1 in this test.
inactive

###

# Test system: SN12C renal
# EXPERIMENT: NCI tumour cell line growth inhibition, 48 h; in the data active = GI50 below about 0.43 µM; inactive = the rest
Please answer using one outcome listed in true (1) for active, false (0) for inactive

COc1ccccc1Nc1nc2ccccc2c2occc12; false (0)

From here, focus on the item given below.
Look up the recorded call for OCC#CCCCCOCC#Cc1ccccc1C#CCOCCCCC#CCO in this test.
false (0)

###

molecules and their reported TGI
# Tested on: M19-MEL melanoma
# EXPERIMENT: NCI tumour cell line growth inhibition, 48 h

Illustrative cases are given below, each with its answer.
CC(=O)C(N=NC1CCC(S(=O)(=O)NB2N=CS2)CC1)C(=O)Nc1ccccc1C (stereo unspecified); 34.1 µM
CC1NCCc2c1[nH]c1cc(O)ccc21 (stereo unspecified); > 100 µM

Please report TGI for the following molecule: COc1ccc(C(=O)C/C(=N/NC(N)=S)C(=O)Nc2ccccc2)cc1
> 100 µM

Please report TGI for the following molecule: O=C1COc2cc3c(cc2N1)SCCC(=O)N3
> 100 µM

Please report TGI for the following molecule: CNC(=O)/C(=C/c1ccc(OC)cc1)c1cc(OC)c(OC)c(OC)c1
> 100 µM

Please report TGI for the following molecule: Cc1cccc2cc3cccc(C(=O)NCCN(C)C)c3nc12
0.847 µM

###

# Test system: SK-OV-3 ovarian
# EXPERIMENT: NCI tumour cell line growth inhibition, 48 h; in the data active = GI50 below about 0.43 µM; inactive = the rest
Please answer using one outcome listed in TRUE = active, FALSE = inactive

Please review the following examples before continuing.
Cc1ccc(S(=O)(=O)N[C@@H](Cc2ccccc2)C(=O)CCl)cc1; FALSE
COc1ccccc1Nc1nc2ccccc2c2occc12; FALSE
C=C1C(=O)O[C@H]2[C@H]1CC/C(COC(=O)C(=O)c1c[nH]c3ccc(Cl)cc13)=C\CC[C@@]1(C)O[C@@H]21; FALSE
O=C(Nc1nc(-c2ccccc2)cs1)c1cc(O)c(O)c(O)c1; FALSE
CCCC(=O)O[C@]1(C)CC[C@@H]2[C@H]3[C@@H]1[C@@H]1C/C(C)=C\CC[C@](C)(OC(=O)[C@@H]2C)[C@H]3O1; FALSE
NC(=S)N/N=C/c1ccc(OC(=O)COc2ccccc2)cn1; FALSE
CNC12C3C4C1C1C2C3C41C(=O)N[C@H](C(=O)N(C)[C@H](C[C@@H](OC(C)=O)c1nc(C(=O)N[C@@H](Cc2ccccc2)C[C@H](C)C(=O)OC)cs1)C(C)C)C1CC1 (stereo partly drawn); FALSE

Look up the recorded call for CC(=O)OC1CC2(O)C(CCC3(C)C(c4ccc(=O)oc4)CCC32O)C2(C)CCC(OC3OC(CO)C(O)C(O)C3O)C=C12 (stereo not drawn) in this test.
TRUE

###

# Test system: SN12C renal
# EXPERIMENT: NCI tumour cell line growth inhibition, 48 h
molecules and their reported TGI

Illustrative cases are given below, each with its answer.
CC1NCCc2c1[nH]c1cc(O)ccc21 (stereo not given); > 100 µM
C[N+]1(C)C/C(=C\c2ccc(O)cc2)C(=O)/C(=C/c2ccc(O)cc2)C1; > 100 µM
O=C(Nc1cc(C(F)(F)F)cc(C(F)(F)F)c1)Nc1ccc(OCc2nnc(-c3ccc(Cl)cc3)o2)c(F)c1; 15.7 µM

Please report TGI for the following molecule: Cc1cccc(/C=C2/C(=O)Nc3ccccc32)n1
37.9 µM

Please report TGI for the following molecule: CNC(C)[C@H]1CCC2C3CCC4C[C@@H](N(C)C(=O)c5ccccc5)CC[C@]4(C)C3CC[C@@]21C (stereo not given in full)
8.34 µM

###

# System: NCI-H226 lung
# EXPERIMENT: NCI tumour cell line growth inhibition, 48 h
compounds and their reported TGI

Illustrative cases are given below, each with its answer.
CC(=O)Oc1cc(/C=C/c2ccc(O)cc2)cc(OC(C)=O)c1; 86.9 µM
O=C(O)c1nnsc1-c1csnn1; > 100 µM

Please report TGI for the following compound: O=C(/C=C/c1ccccc1Br)c1ccccc1
36.6 µM
